binders and their reported pKi
Target: T1, YFP-tagged human APJ receptor (human, UniProt P35414 1-380)
T1 construct: whole, on cells; also called hAPJ; APJ WT; not shown: YFP tag
T1 sequence (looked up): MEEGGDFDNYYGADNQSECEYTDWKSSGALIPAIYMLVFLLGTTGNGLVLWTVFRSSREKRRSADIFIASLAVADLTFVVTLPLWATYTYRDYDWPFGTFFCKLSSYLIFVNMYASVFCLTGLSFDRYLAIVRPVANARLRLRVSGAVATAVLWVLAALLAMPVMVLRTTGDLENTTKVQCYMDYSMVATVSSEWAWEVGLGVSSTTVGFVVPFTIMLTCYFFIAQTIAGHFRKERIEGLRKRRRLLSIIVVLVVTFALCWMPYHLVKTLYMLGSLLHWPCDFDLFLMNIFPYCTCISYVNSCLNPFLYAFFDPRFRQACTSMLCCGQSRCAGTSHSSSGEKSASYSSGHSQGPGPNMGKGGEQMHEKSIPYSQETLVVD
Assay: competitive radioligand binding, HEK293-hAPJ membranes
Numbered stars: 1 amine (or outer) side, 2 acyl side, 3 side chain; on linkers, the order of the positions; unused ones are H or OH. Bridge positions count the residues as written; N and C are the ends. Square brackets hold non-standard residues; d marks the D form. Ends that are not written are not given here. * marks the point of attachment. pent‑4‑enoyl = des-amino allylglycine (Ø = desamino analog), C=CCCC(=O)*; Rx = Nα-allyl-arginine, C=CCN([C@@H](CCCNC(=N)N)C(=O)[*:2])[*:1]; pGlu = O=C1CC[C@@H](C(=O)O)N1; Nle = CCCC[C@H](N)C(=O)O; AIH = not defined here
Give only the number. pKi is defined as minus log10 of concentration in molar units.

Some binders with known pKi results, for comparison:
Binder	pKi
Ac-ENTN[8‑aminooctanoic acid]RPRLKHKGP[Nle]PF (lactam 1-10) [Compound 46 (KT01-145)]	7.49
RKPXY (NH2-R-c[K(N-butenyl)-P-X]-Tyr(Obn): K(N-butenyl) 2 and X (allylglycine) 4 close the macrocycle; Tyr(OBn) 5) [Compound 50 (KT01-181)]	5.14
[pGlu]RKRLSDKGP[Nle]PF (lactam 3-7) [Compound 17 (KT01-106)]	7.41
[pent‑4‑enoyl]RLS[AIH]KGP[Nle]PF (staple 1-5; not fully specified; printed as Ø-c[X-R-L-S-AIH]-K-G-P-Nle-P-F; reading uncertain) [Compound 27 (KT01-111)]	6.42

Turning now to a further binder:
GET /value?item= [Rx]RLS[AIH]KGP[Nle]PF (staple 1-5; reading uncertain) [Compound 26 (KT01-120)] &field=pKi returns 6.42

Values from patent US20240343761A1
